Tested on: mice
Assay: Neuropharmacological Assay (SmartCube)
Format: in vivo
Settings: mice, i.p. 15 min before test, most efficacious dose(s) of 3 doses
Text: Neuropharmacological Assay (SmartCube™) Neurosci. 2011 Sep. 9; 5:103 (doi: 10.3389/fnins.2011.00103) (“Roberds”). […] To facilitate testing of multiple compounds for behavioral effects relevant to psychiatric disease, PsychoGenics, Inc. (Tarrytown, N.Y., “PGI”) developed SmartCube™, an automated system in which behaviors of compound-treated mice are captured by digital video and analyzed with computer algorithms. […] where LOQ is the limit of quantification. […]
assay metric: DP: anti-depressant (SmartCube probability)

Example results:
Cc1cccc2c1[C@@H](CN)OCC2 [Example 74, (S)-(8-methylisochroman-1-yl)methanamine] :: + (LOQ≤ + <5%)
CNC[C@H]1OCCc2c(C)cccc21 :: ++ (5%≤ ++ <25%)
CNC[C@H]1OCCc2ccc(F)cc21 :: ++ (5%≤ ++ <25%)
CNC[C@H]1OCCc2cccc(Cl)c21 :: + (LOQ≤ + <5%)

Would you kindly look at the next entry?
Look up DP: anti-depressant (SmartCube probability) for this compound: CNC[C@@H]1OCCc2cc3c(cc21)OCO3 (stereo in doubt)
+ (LOQ≤ + <5%)

----------
tested on: mice; assay: Neuropharmacological Assay (SmartCube); assay type: in vivo; settings: mice, i.p. 15 min before test, most efficacious dose(s) of 3 doses
assay metric: AX: anxiolytic (SmartCube probability)

Example results:
CNC[C@H]1OCCc2cccc(Cl)c21 :: ++ (5%≤ ++ <25%)
CNC[C@H]1OCc2c(Cl)cccc21 :: ++ (5%≤ ++ <25%)
CNC[C@H]1OCCc2c(F)cccc21 :: ++ (5%≤ ++ <25%)
CC(N)C1OCCc2ccc3c(c21)OCO3 (stereo not shown) :: ++ (5%≤ ++ <25%)
NC[C@@H]1OCCc2c1ccc1c2OCO1 :: + (LOQ≤ + <5%)

Give its AX: anxiolytic (SmartCube probability) value. Item: CNC[C@H]1OCCc2c(O)cc3c(c21)OCO3 (single isomer, unassigned)
+++ (25%≤ +++ <50%)

Bench note: what AX: anxiolytic (SmartCube probability) did CNC[C@@H]1OCCc2c(C)cccc21 show?
++ (5%≤ ++ <25%)

Can you look up the measured AX: anxiolytic (SmartCube probability) of CNC[C@H]1OCCc2cc(F)ccc21 for me?
++ (5%≤ ++ <25%)

For the molecule CNC[C@@H]1OCCc2c(F)cccc21 , what AX: anxiolytic (SmartCube probability) is on record?
++ (5%≤ ++ <25%)

Recorded AX: anxiolytic (SmartCube probability) for CNC[C@@H]1OCCc2c(F)ccc(F)c21 , please?
++ (5%≤ ++ <25%)

Reported AX: anxiolytic (SmartCube probability) for CNC[C@H]1OCCc2c1cccc2C(F)(F)F : what is it?
++ (5%≤ ++ <25%)

Given NC[C@@H]1OCCc2cc(F)ccc21 [Example 34, (R)-(6-fluoroisochroman-1-yl)methanamine] , state its recorded AX: anxiolytic (SmartCube probability).
++ (5%≤ ++ <25%)

Reported AX: anxiolytic (SmartCube probability), molecule CNC[C@H]1OC[C@H](O)c2ccc3c(c21)OCO3 (single isomer, unassigned) : ____
++ (5%≤ ++ <25%)

Consider the molecule shown here: CNC[C@@H]1OC[C@@H](O)c2ccc3c(c21)OCO3 (single isomer, unassigned) What is its recorded AX: anxiolytic (SmartCube probability)?
++ (5%≤ ++ <25%)

Look up AX: anxiolytic (SmartCube probability): NC[C@H]1OCCc2cccc(Cl)c21 [Example 70, (S)-(8-chloroisochroman-1-yl)methanamine]
++ (5%≤ ++ <25%)

Return reported AX: anxiolytic (SmartCube probability); argument: CNC[C@@H]1OC[C@H](O)c2ccc3c(c21)OCO3 (single isomer, unassigned)
++ (5%≤ ++ <25%)

Numbers sourced from patent US10196403B2.
